- Test system: U2OS
- experiment: relative viability EC50 (midpoint between 100% and the lowest measured viability); higher = less toxic
- measurement_context: 72 h
experimental_endpoint: relative viability EC50

Here's what some known entries look like.
>>> df
                                   compound  value_reported
0  COC(=O)C[C@](O)(CCC(C)(C)O)C(=O)O[C@@H]1C(OC)=C[C@]23CCCN2CCc2cc4c(cc2[C@H]13)OCO4 [harringtonine]       0.0946 µM
1           CC(C)(N)Cc1ccccc1 [phentermine]         > 10 µM
2  CC(C)C(=O)OC[C@H]1O[C@@H](n2ccc(N)nc2=O)[C@](C)(F)[C@@H]1OC(=O)C(C)C [mericitabine]         > 10 µM

Dear reader, for each entry below, please note its relative viability EC50.
1. CCOC(=O)c1cnc2c(cnn2CC)c1NN=C(C)C [etazolate]
2. CCCCN(CCCC)C(=O)CN1C[C@H](c2ccc3c(c2)OCO3)[C@@H](C(=O)O)[C@@H]1c1ccc(OC)cc1 [atrasentan]
3. Cc1cnc(Nc2ccc(N3CCN(C)CC3)cc2)nc1Nc1cccc(S(=O)(=O)NC(C)(C)C)c1
4. CC(C)(C#N)c1cc(Cn2cncn2)cc(C(C)(C)C#N)c1 [anastrozole]
5. CCc1cccc(N(C)C(=N)Nc2cccc3ccccc23)c1 [aptiganel]

Reply |
["> 10 µM", "> 10 µM", "1.55 µM", "> 10 µM", "> 10 µM"]
